Origin of the recorded values: BigSolDB 2.1

experimental_context: in styrene, 334.15 K
endpoint: solubility (mole fraction)
I'd appreciate a reply containing only the number, no unit.

The value of solubility (mole fraction) measured for the molecule CCc1ccc2c(c1)C(=O)c1ccccc1C2=O turned out to be 0.248

----------
experimental_context: in DMAc, 334.15 K
endpoint: solubility (mole fraction)
I'd appreciate a reply containing only the number, no unit.

The value of solubility (mole fraction) measured for the compound CCc1ccc2c(c1)C(=O)c1ccccc1C2=O turned out to be 0.248

----------
experimental_context: in diglyme, 314.15 K
endpoint: solubility (mole fraction)
I'd appreciate a reply containing only the number, no unit.

The value of solubility (mole fraction) measured for the compound CCc1ccc2c(c1)C(=O)c1ccccc1C2=O turned out to be 0.216

----------
experimental_context: in 2-phenylethanol, 324.15 K
endpoint: solubility (mole fraction)
I'd appreciate a reply containing only the number, no unit.

The value of solubility (mole fraction) measured for the compound CCc1ccc2c(c1)C(=O)c1ccccc1C2=O turned out to be 0.21

----------
experimental_context: in DMF, 339.15 K
endpoint: solubility (mole fraction)
I'd appreciate a reply containing only the number, no unit.

The value of solubility (mole fraction) measured for the compound CCc1ccc2c(c1)C(=O)c1ccccc1C2=O turned out to be 0.335

----------
experimental_context: in mesitylene, 344.15 K
endpoint: solubility (mole fraction)
I'd appreciate a reply containing only the number, no unit.

The value of solubility (mole fraction) measured for the compound CCc1ccc2c(c1)C(=O)c1ccccc1C2=O turned out to be 0.371

----------
experimental_context: in 2-methyl-cyclohexyl acetate, 309.15 K
endpoint: solubility (mole fraction)
I'd appreciate a reply containing only the number, no unit.

The value of solubility (mole fraction) measured for the compound CCc1ccc2c(c1)C(=O)c1ccccc1C2=O turned out to be 0.0907

----------
experimental_context: in dioctyl adipate, 319.15 K
endpoint: solubility (mole fraction)

The value of solubility (mole fraction) measured for the molecule CCc1ccc2c(c1)C(=O)c1ccccc1C2=O turned out to be 0.107

----------
experimental_context: in trioctyl phosphate, 319.15 K
endpoint: solubility (mole fraction)
I'd appreciate a reply containing only the number, no unit.

The value of solubility (mole fraction) measured for the compound CCc1ccc2c(c1)C(=O)c1ccccc1C2=O turned out to be 0.0959

----------
experimental_context: in diglyme, 324.15 K
endpoint: solubility (mole fraction)
I'd appreciate a reply containing only the number, no unit.

The value of solubility (mole fraction) measured for the compound CCc1ccc2c(c1)C(=O)c1ccccc1C2=O turned out to be 0.275

----------
experimental_context: in DMAc, 324.15 K
endpoint: solubility (mole fraction)
I'd appreciate a reply containing only the number, no unit.

The value of solubility (mole fraction) measured for the compound CCc1ccc2c(c1)C(=O)c1ccccc1C2=O turned out to be 0.184

----------
experimental_context: in DMAc, 319.15 K
endpoint: solubility (mole fraction)
I'd appreciate a reply containing only the number, no unit.

The value of solubility (mole fraction) measured for the compound CCc1ccc2c(c1)C(=O)c1ccccc1C2=O turned out to be 0.156

----------
experimental_context: in DMAc, 344.15 K
endpoint: solubility (mole fraction)
I'd appreciate a reply containing only the number, no unit.

The value of solubility (mole fraction) measured for the compound CCc1ccc2c(c1)C(=O)c1ccccc1C2=O turned out to be 0.336

----------
experimental_context: in diglyme, 339.15 K
endpoint: solubility (mole fraction)
I'd appreciate a reply containing only the number, no unit.

The value of solubility (mole fraction) measured for the compound CCc1ccc2c(c1)C(=O)c1ccccc1C2=O turned out to be 0.401
